testProtocol: Cytotoxicity against human MT4 cells assessed as reduction in cell viability by MTT assay
Assay type: toxicity, cell-based
observationType: log10 CC50 (log10 of the value in µM)

Cc1ccc(-c2cc(Cl)cc(Oc3c(C(F)(F)F)ccn(Cc4n[nH]c(=O)n4C)c3=O)c2)cc1 = 1.97
Cn1c(Cn2ccc(C(F)(F)F)c(Oc3cc(Cl)cc(-c4cc5ccccc5s4)c3)c2=O)n[nH]c1=O = 2.00
Cn1c(Cn2ccc(C(F)(F)F)c(Oc3cc(Cl)cc(-c4ccc(Br)cc4)c3)c2=O)n[nH]c1=O = 2.07
Cn1c(Cn2ccc(C(F)(F)F)c(Oc3cc(Cl)cc(-c4ccncc4)c3)c2=O)n[nH]c1=O = 1.85
Cn1c(Cn2ccc(C(F)(F)F)c(Oc3cc(Cl)cc(-c4ccc(Cl)cc4)c3)c2=O)n[nH]c1=O = 2.09
Cn1c(Cn2ccc(C(F)(F)F)c(Oc3cc(Cl)cc(-c4cncnc4)c3)c2=O)n[nH]c1=O = 1.81
Cn1c(Cn2ccc(C(F)(F)F)c(Oc3cc(Cl)cc(-c4ccccc4)c3)c2=O)n[nH]c1=O = 2.27
Cn1c(Cn2ccc(C(F)(F)F)c(Oc3cc(Cl)cc(C(N)=O)c3)c2=O)n[nH]c1=O = 1.45
Cn1c(Cn2ccc(C(F)(F)F)c(Oc3cc(Cl)cc(-c4ccsc4)c3)c2=O)n[nH]c1=O = 1.94
Cn1c(Cn2ccc(C(F)(F)F)c(Oc3cc(Cl)cc(-c4ccc(C(N)=O)cc4)c3)c2=O)n[nH]c1=O = 1.87
Cn1c(Cn2ccc(C(F)(F)F)c(Oc3cc(Cl)cc(-c4cnc(N)nc4)c3)c2=O)n[nH]c1=O = 0.51
Cn1c(Cn2ccc(C(F)(F)F)c(Oc3cc(Cl)cc(-c4cccs4)c3)c2=O)n[nH]c1=O = 1.66
Cn1c(Cn2ccc(C(F)(F)F)c(Oc3cc(Cl)cc(-c4ccc(C#N)cc4)c3)c2=O)n[nH]c1=O = 0.71
Cn1c(Cn2ccc(C(F)(F)F)c(Oc3cc(Cl)cc(-c4ccc([N+](=O)[O-])cc4)c3)c2=O)n[nH]c1=O = 1.66
Cn1c(Cn2ccc(C(F)(F)F)c(Oc3cc(Cl)cc(Br)c3)c2=O)n[nH]c1=O = 2.15
